System: A. actinomycetemcomitans virulence genes
TEST_DESCRIPTION: Virulence gene expression in multi-species biofilm (SYBR RT-qPCR)
Type: cell-based
ASSAY_SETUP: lower part of Table 6a, substrate 1%(w/v); relative to control = 1
REPORTED_ENDPOINT: fold change in ltxA expression, geometric mean (95% C.I.)

Some solved cases for reference:
OC[C@H]1O[C@H](O[C@H]2O[C@H](CO)[C@@H](O)[C@H](O)[C@H]2O)[C@H](O)[C@@H](O)[C@@H]1O [D-trehalose, D-(+)-trehalose]
0.08 (0.01-0.73)^∗ fold
CC(=O)N[C@H]1C(O)O[C@H](CO)[C@@H](O)[C@@H]1O (stereo partly shown)
0.4 (0.11-1.39) fold
OC[C@H]1O[C@H](OC[C@H]2O[C@H](O[C@]3(CO)O[C@H](CO)[C@@H](O)[C@@H]3O)[C@H](O)[C@@H](O)[C@@H]2O)[C@H](O)[C@@H](O)[C@H]1O [D-raffinose, D-(+)-raffinose]
0.30 (0.12-0.79) fold

GET /value?item= OC[C@H]1O[C@@H](O[C@H]2[C@H](O)[C@@H](O)[C@@H](O)O[C@@H]2CO)[C@H](O)[C@@H](O)[C@H]1O &field=fold change in ltxA expression, geometric mean (95% C.I.) returns 0.04 (0.02-0.08)^∗ fold

---

Test system: A. actinomycetemcomitans virulence genes
TEST_DESCRIPTION: Virulence gene expression in multi-species biofilm (SYBR RT-qPCR)
Format: cell-based
ASSAY_SETUP: lower part of Table 6a, substrate 1%(w/v); relative to control = 1
Protocol: Biofilms are grown vertically on Calcium Deficient Hydroxyapatite (CAD-HA) disks (Hitemco Medical, Old Bethpage, USA) using the Amsterdam Active Adhesion model. […] The virulence of the substrate-treated multi-species biofilms are evaluated by analyzing the relative expression of 33 genes that are recognized as being related to some form of virulence and from 4 periodontal pathogens. […]
Each item that follows carries a reported fold change in apaH expression, geometric mean (95% C.I.).

Some entries whose results are on file:
CC(=O)N[C@H]1C(O)O[C@H](CO)[C@@H](O)[C@@H]1O (stereo partly shown)
0.73 (0.41-1.29) fold
OC[C@H]1O[C@H](OC[C@H]2O[C@H](O[C@]3(CO)O[C@H](CO)[C@@H](O)[C@@H]3O)[C@H](O)[C@@H](O)[C@@H]2O)[C@H](O)[C@@H](O)[C@H]1O [D-raffinose, D-(+)-raffinose]
0.91 (0.48-1.73) fold
OC[C@H]1O[C@H](O[C@H]2O[C@H](CO)[C@@H](O)[C@H](O)[C@H]2O)[C@H](O)[C@@H](O)[C@@H]1O [D-trehalose, D-(+)-trehalose]
0.64 (0.37-1.10) fold

Please examine the following record next.
Note to self: fold change in apaH expression, geometric mean (95% C.I.) recorded for OC[C@H]1O[C@@H](O[C@H]2[C@H](O)[C@@H](O)[C@@H](O)O[C@@H]2CO)[C@H](O)[C@@H](O)[C@H]1O was 0.84 (0.29-2.49) fold

---

System: P. gingivalis virulence genes
TEST_DESCRIPTION: Virulence gene expression in multi-species biofilm (SYBR RT-qPCR)
Type: cell-based
ASSAY_SETUP: substrate 1 % (w/v); relative to control, 2^-ΔΔCt; n = 3
This listing pairs molecules with measured fold change in partC expression, geometric mean (95% C.I.).

Use these answered entries as a reference point.
CC(=O)N[C@H]1C(O)O[C@H](CO)[C@@H](O)[C@@H]1O (stereo partly shown)
0.36 (0.08-1.68)^∗ fold
OC[C@H]1O[C@@H](O[C@H]2[C@H](O)[C@@H](O)[C@@H](O)O[C@@H]2CO)[C@H](O)[C@@H](O)[C@H]1O
0.47 (0.07-3.04) fold

The molecule listed as OC[C@H]1O[C@H](OC[C@H]2O[C@H](O[C@]3(CO)O[C@H](CO)[C@@H](O)[C@@H]3O)[C@H](O)[C@@H](O)[C@@H]2O)[C@H](O)[C@@H](O)[C@H]1O [D-raffinose, D-(+)-raffinose] has a reported fold change in partC expression, geometric mean (95% C.I.) of 0.54 (0.26-1.12) fold

The molecule OC[C@H]1O[C@H](O[C@H]2O[C@H](CO)[C@@H](O)[C@H](O)[C@H]2O)[C@H](O)[C@@H](O)[C@@H]1O [D-trehalose, D-(+)-trehalose] showed fold change in partC expression, geometric mean (95% C.I.) equal to 0.71 (0.37-1.35) fold
